# Test system: Rattus norvegicus
# EXPERIMENT: Biodistribution in uterus / spleen, muscle, lungs of immature female rat after 3 hour administration of 3 micro Ci (111 kBq) in the absence of 60 microg estradiol
# Type: ADME, organism-based
# SETTINGS: in vivo
OBSERVABLE: Uterus to nontarget tissue (spleen, muscle, lungs) uptake ratio (%)

Sample answers from the record:
smi=C[C@]12CC[C@@H]3c4ccc(O)c(F)c4CC[C@H]3[C@@H]1CC[C@@]2(O)/C=C/I system_tested="Rattus norvegicus" meas_value=11.38
smi=C[C@@H]1Cc2c(ccc(O)c2F)[C@H]2CC[C@@]3(C)[C@@H](CC[C@@]3(O)/C=C/I)[C@H]12 system_tested="Rattus norvegicus" meas_value=7.15
smi=C[C@@H]1Cc2c(ccc(O)c2F)[C@H]2CC[C@@]3(C)[C@@H](CC[C@@]3(O)/C=C\I)[C@H]12 system_tested="Rattus norvegicus" meas_value=8.32
smi=C[C@]12CC[C@@H]3c4ccc(O)c(F)c4CC[C@H]3[C@@H]1CC[C@@]2(O)/C=C\I system_tested="Rattus norvegicus" meas_value=12.16
smi=C[C@@H]1Cc2cc(O)c(F)cc2[C@H]2CC[C@@]3(C)[C@@H](CC[C@@]3(O)/C=C\I)[C@H]12 system_tested="Rattus norvegicus" meas_value=7.35
smi=C[C@@H]1Cc2cc(O)c(F)cc2[C@H]2CC[C@@]3(C)[C@@H](CC[C@@]3(O)/C=C/I)[C@H]12 system_tested="Rattus norvegicus" meas_value=3
smi=CO[C@H]1C[C@@]2(C)[C@@H](CC[C@@]2(O)/C=C/I)[C@@H]2CCc3cc(O)c(F)cc3[C@H]21 system_tested="Rattus norvegicus" meas_value=8.2

A: C[C@]12CC[C@@H]3c4cc(F)c(O)cc4CC[C@H]3[C@@H]1CC[C@@]2(O)/C=C\I
B: CO[C@H]1C[C@@]2(C)[C@@H](CC[C@@]2(O)/C=C\I)[C@@H]2CCc3c(ccc(O)c3F)[C@H]21
stdin: Uterus to nontarget tissue (spleen, muscle, lungs) uptake ratio comparison. Which is larger, A or B ? Pick one and reply with its label.
stdout: A
